Measured OD450, listed per entry.
EXPERIMENTAL_TARGET: T1, human MSLN-R2-his protein (human, UniProt Q13421 391-486)
T1 construct: it is put last here; also called human MSLN-R2 protein; hMSLN-R2-his; not shown: His tag
T1 sequence (Q13421 other isoform, or with tags, fused parts or gaps): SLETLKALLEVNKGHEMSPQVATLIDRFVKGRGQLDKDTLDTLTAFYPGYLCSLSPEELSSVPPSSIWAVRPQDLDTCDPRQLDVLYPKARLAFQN
TEST_METHOD_NOTES: ELISA on coated antigen, antibody 0.002 nM

- BINDER: "Tab106 (YP218, hIgG1) (antibody, V domains shown, Control antibody; YP218 VH and VL recombined into human IgG1 CH and CL expression vectors; also called YP218 human IgG1 antibody) VH: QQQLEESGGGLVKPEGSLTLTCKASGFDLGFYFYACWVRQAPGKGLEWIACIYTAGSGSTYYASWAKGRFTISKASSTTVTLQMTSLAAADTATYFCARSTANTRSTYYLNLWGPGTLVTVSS VL: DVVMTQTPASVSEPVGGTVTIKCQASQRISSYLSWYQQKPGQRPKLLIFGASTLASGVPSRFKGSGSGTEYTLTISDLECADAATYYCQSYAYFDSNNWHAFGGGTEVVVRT"
  OD450 / OD: 0.11
- BINDER: "S009-F7.6.17 (antibody, human IgG1, kappa, V domains shown, Human-murine chimeric antibody, human IgG1 heavy and kappa light constant regions) VH: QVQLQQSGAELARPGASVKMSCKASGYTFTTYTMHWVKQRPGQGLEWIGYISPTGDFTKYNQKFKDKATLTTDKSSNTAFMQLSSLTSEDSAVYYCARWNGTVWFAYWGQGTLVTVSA VL: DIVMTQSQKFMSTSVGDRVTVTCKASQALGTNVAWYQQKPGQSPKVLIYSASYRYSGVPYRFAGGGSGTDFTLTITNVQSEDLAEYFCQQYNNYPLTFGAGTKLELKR"
  OD450 / OD: 0.05
- BINDER: "S009-F7.44.20 (antibody, human IgG1, kappa, V domains shown, Human-murine chimeric antibody, human IgG1 heavy and kappa light constant regions) VH: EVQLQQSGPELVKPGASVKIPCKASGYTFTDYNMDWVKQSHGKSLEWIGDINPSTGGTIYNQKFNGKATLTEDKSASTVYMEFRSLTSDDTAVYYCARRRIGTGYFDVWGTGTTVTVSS VL: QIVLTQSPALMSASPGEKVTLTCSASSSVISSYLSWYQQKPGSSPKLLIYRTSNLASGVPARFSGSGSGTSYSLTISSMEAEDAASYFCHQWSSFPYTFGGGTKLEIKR"
  OD450 / OD: 0.05

From: patent US20250250357A1
